# EXPERIMENTAL SYSTEM: T1, murine IL-11 (mouse, UniProt P47873 22-199)
# T1 sequence: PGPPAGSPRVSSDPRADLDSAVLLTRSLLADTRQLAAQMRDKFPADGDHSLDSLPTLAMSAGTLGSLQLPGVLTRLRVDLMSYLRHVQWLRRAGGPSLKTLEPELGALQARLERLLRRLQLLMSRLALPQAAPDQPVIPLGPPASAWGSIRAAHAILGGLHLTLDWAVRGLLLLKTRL
# RUN DESCRIPTION: cell-based or functional assay
Would you mind telling me the reported RGA IC50 of each entry?

Examples with answers:
[
  {
    "BINDER": "TPP-26319 (antibody, V domains shown) VH: EVQLLESGGGLVQPGGSLRLSCAASGFTFSSYGMHWVRQAPGKGLEWVSVISYDGSYKYYADSVKGRFTISRDNSKNTLYLQMNSLRAEDTAVYYCAAGVPDYWGQGTLVTVSS VL: QSVLTQPPSASGTPGQRVTISCTGSSSNIGAGYDVHWYQQLPGTAPKLLIYSNNEKPSGVPDRFSGSKSGTSASLAISGLRSEDEADYYCAAWDDSLNGPVFGGGTKLTVL",
    "RGA IC50": "1.5 nM"
  },
  {
    "BINDER": "TPP-26312 (antibody, V domains shown) VH: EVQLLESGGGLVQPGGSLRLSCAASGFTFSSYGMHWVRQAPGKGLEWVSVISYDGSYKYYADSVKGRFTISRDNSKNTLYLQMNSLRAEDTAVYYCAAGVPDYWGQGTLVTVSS VL: QSVLTQPPSASGTPGQRVTISCTGSSSNIGAGLDVHWYQQLPGTAPKLLIYSNNERPSGVPDRFSGSKSGTSASLAISGLRSEDEADYYCAAWDDSLNGPVFGGGTKLTVL",
    "RGA IC50": "1.2 nM"
  }
]

Entry TPP-26328 (antibody, V domains shown) VH: EVQLLESGGGLVQPGGSLRLSCAASGFTFSSYGMHWVRQAPGKGLEWVSVISYDGSYKYYADSVKGRFTISRDNSKNTLYLQMNSLRAEDTAVYYCAATVPDYWGQGTLVTVSS VL: QSVLTQPPSASGTPGQRVTISCTGSSSNIGAGYDVHWYQQLPGTAPKLLIYSNNERPSGVPDRFSGSKSGTSASLAISGLRSEDEADYYCAAWDDSLNGPVFGGGTKLTVL : reported RGA IC50 = ?
64 nM
